# EXPERIMENTAL TARGET: T1, Rb^P H699P (human, UniProt P06400 380-788, H699P)
# T1 construct: also called variant 63
# T1 sequence (looked up): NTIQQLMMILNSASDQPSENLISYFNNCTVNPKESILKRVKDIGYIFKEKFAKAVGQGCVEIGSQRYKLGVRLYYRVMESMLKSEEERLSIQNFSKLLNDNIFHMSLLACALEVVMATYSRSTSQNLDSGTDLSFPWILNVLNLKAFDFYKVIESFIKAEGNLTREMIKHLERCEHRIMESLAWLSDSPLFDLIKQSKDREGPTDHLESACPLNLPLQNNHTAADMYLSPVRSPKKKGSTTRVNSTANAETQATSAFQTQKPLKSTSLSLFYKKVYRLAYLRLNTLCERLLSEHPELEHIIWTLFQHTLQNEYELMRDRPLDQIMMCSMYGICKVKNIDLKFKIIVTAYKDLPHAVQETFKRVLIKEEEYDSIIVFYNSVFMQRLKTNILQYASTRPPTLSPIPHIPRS
# EXPERIMENTAL DETAILS: fluorescence polarisation; 25 °C; unlabeled Rb^P titrated against 1.5 nM TMR-E2F1^TD or 7.5 nM TMR-E7^LxCxE; 25 mM Tris pH 8.0, 200 mM NaCl, 1 mM DTT, 0.1% Tween-20; 2 min incubation; quadratic fit; apparent Kd for the variants, Kd for WT
# RECORDED CONDITIONS: both partners purified
pKd: −log10 of the molar value. No end group written: not given here. TMR = tetramethyl rhodamine dye
Below: a set of entries, each annotated with reported pKd.
ENDPOINT NAME: pKd

INSERT INTO assay_data (binder, endpoint_name, recorded_result) VALUES
  ('DLYCYEQLN (also: TMR label, position not given here, source: synthetic peptide, bought: GenScript) [TMR-E7^LxCxE, LxCxE peptide of the E7 oncoprotein from HPV]', 'pKd', 8.22),
  ('{TMR}-GEGIRDLFDCDFGDLTPLD (also called E2F^TD; source: synthetic peptide, bought: GenScript) [TMR-E2F1^TD, peptide of the E2F1 transactivation domain]', 'pKd', 7.46);
